Provenance of the data: patent US9416111B2

Answer each item with its documented IC50.
molecular target: recombinant human GST-SYK (Homo sapiens); construct: purchased Carna Biosciences 08-176; test: Homogeneous Time-Resolved Fluorescence (HTRF) assay for the recombinant human Syk enzyme; format: biochemical; details: GST-hSYK 5 pM, ATP 25 μM, IC50 rated in classes, read-out: rhSYK Activity

Problem: Fill blank: measured IC50 of the compound `CCOC(=O)CCc1cncc(-c2cc(C)cc(Nc3nccc(C(F)(F)F)n3)c2)n1` is ____.
Solution: 100 to 1000 nM

Problem: For Cc1cc(Nc2nccc(C(F)F)n2)cc(-c2cnc([C@H](C)[C@H]3CC[C@H](C(=O)O)[C@H](C)C3)nc2)c1 (single isomer, unassigned) [Example 7.7] then?
Solution: < 100 nM

Problem: Consider next the compound `Cc1cc(Nc2nccc(C(F)(F)F)n2)cc(-c2cnc(N(CCO)CCO)nc2)c1` in the same way.
Solution: < 100 nM

Problem: Can you handle `Cc1cc(Nc2nccc(C(F)(F)F)n2)cc(-c2ccc(N3CCC(C(N)=O)CC3)nn2)c1` next?
Solution: < 100 nM

Problem: Next: `Cc1cc(Nc2nccc(C(F)(F)F)n2)cc(-c2cnc(N(C)[C@@H](C)C(=O)O)nc2)c1`
Solution: < 100 nM

Problem: For `Cc1cc(Nc2nccc(C(F)(F)F)n2)cc(-c2ccc(N3CCC(C(=O)O)CC3)nn2)c1` then?
Solution: < 100 nM

Problem: And the next one, `Cc1cc(Nc2nccc(C(F)(F)F)n2)cc(-c2cnc(N3CC(O)C3)nc2)c1` ?
Solution: < 100 nM

Problem: Same question, `CCOC(=O)CCc1ccc(-c2cc(C)cc(Nc3nccc(C)n3)c2)nn1` this time
Solution: 100 to 1000 nM

Problem: Also check `Cc1cc(Nc2nccc(C(F)(F)F)n2)cc(-c2cnc(N3CCC(C(=O)O)CC3)nc2)c1`
Solution: < 100 nM

Problem: Input `Cc1cc(Nc2nccc(C(F)(F)F)n2)cc(-c2cnc(N3CCCC[C@H]3C(=O)O)nc2)c1`
Solution: < 100 nM

Problem: # repeat for `Cc1cc(Nc2nccc(C(F)(F)F)n2)cc(-c2cnc(NCCCCO)nc2)c1`
Solution: < 100 nM

Problem: Repeat for the following compound: `Cc1cc(Nc2nccc(C)n2)cc(-c2cnc(CCC(=O)O)cn2)c1`
Solution: 100 to 1000 nM

Problem: For `COc1ccnc(Nc2cc(C)cc(-c3cncc(CCC(=O)O)n3)c2)n1` then?
Solution: < 100 nM

Problem: Again, but for Cc1cc(Nc2nccc(C(F)(F)F)n2)cc(-c2cnc(N3CCC3C(=O)O)nc2)c1 (stereo not shown)
Solution: < 100 nM

Problem: What do you have for `Cc1cc(Nc2nccc(C(F)(F)F)n2)cc(-c2cnc(NCCC(N)=O)nc2)c1` ?
Solution: < 100 nM

Problem: Now the compound Cc1cc(Nc2nccc(C(F)(F)F)n2)cc(-c2cnc(N3CCOC(CCO)C3)nc2)c1 (stereo not shown)
Solution: 100 to 1000 nM

Problem: Same for `CCOC(=O)CCc1ccc(-c2cccc(Nc3nccc(C(F)(F)F)n3)c2)nn1`
Solution: 1000 to 10000 nM

Problem: Follow-up entry: `Cc1cc(Nc2nccc(C(F)(F)F)n2)cc(-c2cnc(NCC(=O)N(C)C)nc2)c1`
Solution: < 100 nM

Problem: `Cc1cc(Nc2nccc(C(F)(F)F)n2)cc(-c2cnc(N(C)CCC3OCCO3)nc2)c1` , same question.
Solution: < 100 nM

Problem: One more compound: `Cc1cc(Nc2nccc(C(F)(F)F)n2)cc(-c2cnc(NCCS(C)(=O)=O)nc2)c1`
Solution: < 100 nM

Problem: Also need `Cc1cc(Nc2nccc(C(F)(F)F)n2)cc(-c2cnc(NCC(N)=O)nc2)c1` , thanks.
Solution: < 100 nM

Problem: Consider next the compound `Cc1cc(Nc2nccc(C3CC3)n2)cc(-c2cnc(CCC(=O)O)nc2)c1` in the same way.
Solution: < 100 nM

Problem: Try this compound next: Cc1cc(Nc2nccc(C(F)F)n2)cc(-c2cnc([C@H](C)[C@H]3CC[C@H](C(=O)O)[C@H](C)C3)nc2)c1 (single isomer, unassigned) [Example 7.5]
Solution: < 100 nM

Problem: Similarly, `CCOC(=O)CCc1cncc(-c2cc(C)cc(Nc3nccc(C)n3)c2)n1` ?
Solution: 100 to 1000 nM

Problem: Would you mind doing `Cc1cc(Nc2nccc(C(F)(F)F)n2)cc(-c2cnc(NCc3cn(C)cn3)nc2)c1` as well?
Solution: < 100 nM

Problem: // query: `CCOC(=O)CCc1ccc(-c2cc(C)cc(Nc3nccc(C4CC4)n3)c2)nn1`
Solution: 100 to 1000 nM

Problem: Same again, this time with Cc1cc(Nc2nccc(C(F)(F)F)n2)cc(-c2cnc(NCC(O)CC(=O)O)nc2)c1 (stereo not shown)
Solution: < 100 nM

Problem: Please give the result for Cc1cc(Nc2nccc(C(F)F)n2)cc(-c2cnc([C@H](C)[C@H]3CC[C@H](C(=O)O)[C@H](C)C3)nc2)c1 (single isomer, unassigned) [Example 7.2] too.
Solution: < 100 nM

Problem: Please do the same for `Cc1cc(Nc2nccc(C(F)(F)F)n2)cc(-c2cnc(NC(C)(C)CO)nc2)c1` as well.
Solution: < 100 nM

Problem: Same question for `Cc1cc(Nc2nccc(C(F)(F)F)n2)cc(-c2cnc(N3CC[C@H]3C(=O)O)nc2)c1` please.
Solution: < 100 nM

Problem: // same read-out, input: `CCOC(=O)CCc1cc(-c2cc(C)cc(Nc3nccc(C4CC4)n3)c2)ncn1`
Solution: 100 to 1000 nM
